Each entry below lists one item and its recorded IC50 value.
Molecular target: Nonstructural protein 1 (Influenza A virus, UniProt Q194T2)
Sequence (Q194T2 whole entry): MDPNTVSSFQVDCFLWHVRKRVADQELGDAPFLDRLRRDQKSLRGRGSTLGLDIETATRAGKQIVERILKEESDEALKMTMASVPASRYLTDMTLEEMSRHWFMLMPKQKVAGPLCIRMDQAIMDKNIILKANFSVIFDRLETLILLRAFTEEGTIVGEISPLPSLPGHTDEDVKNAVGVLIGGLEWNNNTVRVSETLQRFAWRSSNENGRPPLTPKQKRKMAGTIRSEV
Format: functional, Influenza A virus (A/California/07/2009(H1N1))
Active and inactive are the calls of the source.
assayReadout: IC50

1. Cc1cc2ccccn2c1C(=O)c1cc([N+](=O)[O-])cc([N+](=O)[O-])c1 :: 40.7 µM (active)
2. CN(C)c1ccc(/N=C/C=C2/N(C)c3ccccc3C2(C)C)cc1 :: 16.1 µM (active)
3. CCCC(=O)NC(c1ccccc1)c1ccc2cccnc2c1O (stereo not given) :: 21.5 µM (active)
4. Oc1cccc2c(-c3nn[nH]n3)ccnc12 :: 7.24 µM (active)
5. COc1cccc(/C=N/NC(=O)C(=O)NCc2cccnc2)c1O :: 8.2 µM (active)
6. CN1C=C/C(=C/c2ccc3ccccc3[n+]2C)c2ccccc21 :: 16.4 µM (active)
7. CN(C)c1ccc(/C=C/C=C2/SC(=S)N(c3ccccc3)C2=O)cc1 :: 5.48 µM (active)
8. O=C1c2ccccc2C(=O)c2c1cccc2N1CCN(Cc2ccccc2)CC1 :: 7.08 µM (active)
9. Oc1ccc(CN2CCN(Cc3ccccc3)CC2)c2cccnc12 :: 11.2 µM (active)
10. O=C(O)c1ccccc1N=N/C(=N/Nc1cc(S(=O)(=O)O)ccc1O)c1ccccc1 :: 21.9 µM (active)

---

System: BJ
Test: cells
Format: functional, cell-based
Settings: Homo sapiens
Calls of active or inactive are those of the source.
Each entry below lists one item and its recorded EC50 value.
assayReadout: EC50

1. c1ccc(C2=NN=C(NC3CC3)SC2)cc1 :: 12.4 µM (inconclusive)
2. O=C1C(=O)c2ccccc2-c2ccccc21 :: 5.99 µM (inconclusive)
3. COc1ccc(-n2c(SCC(=O)c3c(N)n(C)c(=O)n(C)c3=O)nc3ccccc32)cc1 :: > 150 µM (not active)
4. Oc1ccccc1C(Nc1nccs1)c1ccc2cccnc2c1O (centres undefined) :: 13.9 µM (active)

---

Test system: H4
Test: Luminescence Cell-Based Dose Response HTS to Identify Activators of 5'UTR Stem-Loop Driven Prion Protein mRNA Translation in H4 Neuroglioblastoma Cells. [Related pubchem assays: 1829 (Project Summary), 1814 (Primary HTS)]
Format: functional
Conditions: Homo sapiens
Active and inactive are the calls of the source.
Each entry below lists one item and its recorded EC50 value.
assayReadout: EC50

1) O=C(c1cc(COc2ccc(F)cc2Cl)on1)N1CCSCC1 :: 0.1 µM (active)
2) O=C(Nc1ccccc1)c1cc2n(n1)C(C(F)(F)F)CC(C1CC1)N2 (stereo not given) :: > 120 µM (not active)
3) O=C(/C=C/c1ccccc1Cl)c1ccc[nH]1 :: 38.9 µM (active)
4) C/C(NC(=O)c1cccc(F)c1)=C1/C(=O)C[C@@H]2[C@H]1C2(C)C :: 17.8 µM (active)
5) CC(C)(C)NC(=O)C(c1ccncc1)N(Cc1ccco1)C(=O)c1ccc(-c2ccccc2)[nH]1 (stereo not given) :: 15.2 µM (active)

---

Molecular target: Histone-lysine N-methyltransferase NSD2 (Homo sapiens)
Sequence (O96028 whole entry): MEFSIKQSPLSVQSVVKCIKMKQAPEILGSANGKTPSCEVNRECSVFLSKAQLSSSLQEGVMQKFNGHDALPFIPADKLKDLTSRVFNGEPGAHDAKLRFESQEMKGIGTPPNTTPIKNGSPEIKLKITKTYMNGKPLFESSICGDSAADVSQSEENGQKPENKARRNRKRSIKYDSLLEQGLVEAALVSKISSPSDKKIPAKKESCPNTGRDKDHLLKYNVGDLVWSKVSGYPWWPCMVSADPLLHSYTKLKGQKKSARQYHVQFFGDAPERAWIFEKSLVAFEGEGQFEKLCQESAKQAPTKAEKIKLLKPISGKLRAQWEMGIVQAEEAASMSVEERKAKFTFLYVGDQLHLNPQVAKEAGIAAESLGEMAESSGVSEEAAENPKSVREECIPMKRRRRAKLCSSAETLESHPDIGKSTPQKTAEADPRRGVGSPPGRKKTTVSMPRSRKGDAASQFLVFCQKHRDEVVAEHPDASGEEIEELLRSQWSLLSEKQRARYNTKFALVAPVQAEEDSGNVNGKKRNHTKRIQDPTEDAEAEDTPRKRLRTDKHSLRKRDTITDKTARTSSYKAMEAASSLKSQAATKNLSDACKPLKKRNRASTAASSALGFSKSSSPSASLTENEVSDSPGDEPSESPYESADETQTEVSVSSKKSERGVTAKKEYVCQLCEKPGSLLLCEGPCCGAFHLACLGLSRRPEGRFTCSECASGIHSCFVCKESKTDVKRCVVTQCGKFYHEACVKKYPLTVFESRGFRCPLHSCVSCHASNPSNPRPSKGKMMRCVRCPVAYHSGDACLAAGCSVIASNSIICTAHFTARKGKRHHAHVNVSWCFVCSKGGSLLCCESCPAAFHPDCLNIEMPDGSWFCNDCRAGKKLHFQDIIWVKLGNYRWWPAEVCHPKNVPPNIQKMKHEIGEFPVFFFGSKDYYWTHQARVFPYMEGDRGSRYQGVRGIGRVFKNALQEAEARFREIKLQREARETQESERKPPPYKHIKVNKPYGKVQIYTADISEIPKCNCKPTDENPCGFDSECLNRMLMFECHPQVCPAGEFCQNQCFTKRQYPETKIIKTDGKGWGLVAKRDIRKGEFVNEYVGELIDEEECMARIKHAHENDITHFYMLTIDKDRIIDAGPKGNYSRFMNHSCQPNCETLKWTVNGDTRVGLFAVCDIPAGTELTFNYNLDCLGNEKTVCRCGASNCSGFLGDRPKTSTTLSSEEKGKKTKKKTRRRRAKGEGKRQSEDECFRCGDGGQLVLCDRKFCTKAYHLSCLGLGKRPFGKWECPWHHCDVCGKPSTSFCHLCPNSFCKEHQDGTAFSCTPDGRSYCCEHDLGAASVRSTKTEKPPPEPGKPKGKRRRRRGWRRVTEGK
Assay type: biochemical
The source made the active and inactive calls.
Outcome codes: yes (1) for active, no (0) for inactive

1. N=C1/C(=C\c2coc3ccccc3c2=O)C(=O)N=C2SC(c3ccncc3)=NN12 :: yes (1)
2. O=C1C=C(N(CCO)Cc2ccccc2)c2ccccc2C1=O :: yes (1)
3. CCCCCCNc1c([N+](=O)[O-])cc(C)cc1[N+](=O)[O-] :: no (0)
4. COCCCNC(=O)c1ccc2c3c(onc13)-c1ccccc1C2=O :: no (0)
5. CCCCn1c(NC(=O)c2ccccc2Cl)c(C#N)c2nc3ccccc3nc21 :: yes (1)
6. Cc1ccc(N2C(=O)NC(=O)/C(=C\C=C\c3ccco3)C2=O)cc1 :: no (0)
7. CC(N=C1C=C(O)c2cccnc2C1=O)C(O)c1ccccc1 (centres undefined) :: yes (1)
8. O=C(O)c1ccccc1N=N/C(=N/Nc1cc(S(=O)(=O)O)ccc1O)c1ccccc1 :: no (0)
9. CCS(=O)(=O)C1=NN2C(=N)/C(=C\c3ccc(SCc4ccco4)o3)C(=O)N=C2S1 :: yes (1)

---

Target: UniProtKB P30556
Sequence (P30556 whole entry): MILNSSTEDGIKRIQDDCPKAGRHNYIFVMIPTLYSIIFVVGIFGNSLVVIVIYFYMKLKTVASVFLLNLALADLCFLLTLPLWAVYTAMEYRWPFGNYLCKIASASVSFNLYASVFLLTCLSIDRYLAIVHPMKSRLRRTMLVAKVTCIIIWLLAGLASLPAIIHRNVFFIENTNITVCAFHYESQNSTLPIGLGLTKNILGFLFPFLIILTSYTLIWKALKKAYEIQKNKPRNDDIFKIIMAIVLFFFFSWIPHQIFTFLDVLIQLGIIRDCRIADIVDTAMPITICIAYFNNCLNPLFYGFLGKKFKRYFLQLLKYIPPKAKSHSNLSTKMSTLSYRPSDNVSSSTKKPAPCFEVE
Assay: AT1 receptor antagonists, dose response, selectivity assay for APJ receptor antagonist project, cell-based, uHTS hits (AID 463214);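 also: antagonist potency against angiotensin II stimulated AT1 response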
Format: functional
The source made the active and inactive calls.
Each entry below lists one item and its recorded IC50 value.
assayReadout: IC50

1. CC1=NN(C(N)=S)C(=O)C1N=Nc1ccc([N+](=O)[O-])cc1 (stereo not given) :: 35.3 µM (not active)
2. C=C1C(=O)O[C@@H]2C[C@@H](C)[C@@H]3C=CC(=O)[C@@]3(C)[C@@H](O)[C@H]12 :: 18.6 µM (active)
3. NC(=O)c1ccccc1NCC(=O)c1ccc(Cl)cc1 :: 7.41 µM (active)
4. Cc1ccc(NC(=S)NNC(=O)c2ccc(N3CCOCC3)c([N+](=O)[O-])c2)cc1Cl :: > 40 µM (not active)
5. CCN=C(S)NNc1nnc(-c2ccccc2)c(-c2ccccc2)n1 :: > 40 µM (not active)

---

Target: DNA dC->dU-editing enzyme APOBEC-3G (Homo sapiens, UniProt Q9HC16)
Sequence (Q9HC16 whole entry): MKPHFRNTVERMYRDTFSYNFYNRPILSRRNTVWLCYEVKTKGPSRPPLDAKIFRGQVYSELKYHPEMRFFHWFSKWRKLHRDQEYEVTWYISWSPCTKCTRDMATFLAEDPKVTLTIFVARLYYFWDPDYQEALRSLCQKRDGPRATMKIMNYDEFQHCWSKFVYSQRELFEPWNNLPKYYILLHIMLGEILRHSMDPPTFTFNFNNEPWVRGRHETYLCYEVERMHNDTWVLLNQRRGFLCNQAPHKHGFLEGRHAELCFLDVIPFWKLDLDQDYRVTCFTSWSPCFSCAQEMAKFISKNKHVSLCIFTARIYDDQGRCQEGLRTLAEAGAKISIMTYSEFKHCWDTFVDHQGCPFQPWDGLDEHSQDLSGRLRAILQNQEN
Test: Dose Response confirmation of small molecule APOBEC3G DNA Deaminase Inhibitors via a fluorescence-based single-stranded DNA deaminase assay. [Related pubchem assays (depositor defined):AID493012, AID493028]
Format: functional
Activity calls are given as the source filed them.
Each entry below lists one item and its recorded IC50 value.
assayReadout: IC50

1. Oc1ccc(C(=S)N2CCN(c3cccc(Cl)c3)CC2)cc1 :: 81 µM (active)
2. Sc1nnc(Nc2ccccc2)s1 :: 0.892 µM (active)
3. CC(C)CCn1c(=O)c2ccccc2n2c(=S)[nH]nc12 :: 1.19 µM (active)
4. COc1cc(N2C(=O)C=CC2=O)c(OC)cc1Cl :: 44 µM (active)
5. Cc1cccc(C)c1OCc1nnc(S)n1N :: 5.83 µM (active)
